target: Cab1p (yeast PanK) (Saccharomyces cerevisiae); construct: native untagged enzyme in cell-free extract of wild-type yeast; assay: radioactive pantothenate kinase assay, double reciprocal plots; conditions: competitive with pantothenate; 2.5 mM ATP, 2.5 mM MgCl2, pH 7.4, 30 °C; enzyme source for Ki not restated (yeast extract as for Km)
Sequence (Q04430 whole entry): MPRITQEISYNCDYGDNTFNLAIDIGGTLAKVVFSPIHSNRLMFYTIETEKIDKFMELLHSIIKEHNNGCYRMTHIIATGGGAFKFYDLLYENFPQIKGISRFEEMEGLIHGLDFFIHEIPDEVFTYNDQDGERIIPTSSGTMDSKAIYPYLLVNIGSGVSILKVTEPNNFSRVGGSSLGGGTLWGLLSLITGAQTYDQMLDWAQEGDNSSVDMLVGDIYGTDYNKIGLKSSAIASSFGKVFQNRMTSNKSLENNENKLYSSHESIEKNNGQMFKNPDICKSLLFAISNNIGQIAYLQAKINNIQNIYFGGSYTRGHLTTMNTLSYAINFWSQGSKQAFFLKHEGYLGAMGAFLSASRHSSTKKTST
MEASURED ATTRIBUTE: pKi
Give only the number. pKi is defined as minus log10 of concentration in molar units.

query: Enter measured pKi, system Cab1p (yeast PanK) (Saccharomyces cerevisiae), for the molecule shown: CC(CNC(=O)[C@H](O)C(C)(C)CO)C(=O)NCCc1ccccc1 (stereo partly drawn) [α-PanAm]
result: 5.00

These measurements were taken from paper PMC5660193.
